Biological target: furin, P09958;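 note: purified furin at 1:10 enzyme:substrate in 50 mM HEPES pH 7.5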
Sequence (P09958 whole entry): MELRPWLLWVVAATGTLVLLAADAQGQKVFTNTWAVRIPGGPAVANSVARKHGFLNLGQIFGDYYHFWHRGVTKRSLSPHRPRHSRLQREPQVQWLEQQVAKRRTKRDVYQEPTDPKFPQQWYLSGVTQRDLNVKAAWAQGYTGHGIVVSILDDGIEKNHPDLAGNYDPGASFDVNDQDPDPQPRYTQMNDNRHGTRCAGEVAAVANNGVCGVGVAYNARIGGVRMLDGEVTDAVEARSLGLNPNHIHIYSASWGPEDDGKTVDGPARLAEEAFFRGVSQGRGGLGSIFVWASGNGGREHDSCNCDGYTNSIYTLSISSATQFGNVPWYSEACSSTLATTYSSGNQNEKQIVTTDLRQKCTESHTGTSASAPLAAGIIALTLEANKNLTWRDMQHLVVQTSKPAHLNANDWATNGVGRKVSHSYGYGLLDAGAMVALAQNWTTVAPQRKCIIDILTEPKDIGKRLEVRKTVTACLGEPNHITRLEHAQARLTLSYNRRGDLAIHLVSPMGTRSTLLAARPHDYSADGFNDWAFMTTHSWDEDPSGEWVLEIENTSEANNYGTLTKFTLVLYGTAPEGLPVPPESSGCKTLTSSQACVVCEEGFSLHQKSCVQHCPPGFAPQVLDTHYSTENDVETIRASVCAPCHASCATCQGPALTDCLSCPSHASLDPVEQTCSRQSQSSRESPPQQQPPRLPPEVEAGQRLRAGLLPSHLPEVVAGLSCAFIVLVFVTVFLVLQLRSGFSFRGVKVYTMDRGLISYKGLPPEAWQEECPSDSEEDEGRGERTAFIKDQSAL
Assay: furin cleavage Z-score vs untreated control; higher = more cleavage, active = 3.5 or more, inactive = 1 or less, 8 variable residues between constant flanks
Details: 30 min
The list shows a part of the results. How many sequences the whole screen found active is unknown.
Return exactly one item of y = active, n = inactive

Example entries begin here.
{"sequence-data": "CARQRRGCFRAGNASASA [FS-2446]", "label-value": "y"}
{"sequence-data": "CARFRRGLDNAGNASASA [FS-1704]", "label-value": "y"}
{"sequence-data": "CATTPCSGSPAGNASASA [HC1939]", "label-value": "n"}

Test call, this sequence: CARQRRLLAAAGNASASA [FS-3042] n

# outcome recorded in this test, key = CARQRREMVAAGNASASA [FS-2589] y

Which outcome was entered for the sequence CARQRRGFHHAGNASASA [FS-2365] in this test? y

Short answer needed: outcome of this test for CARFKRKDRMAGNASASA [FS-2553] ? y
